Entries and their composite z-score
- targetUnderTest: Albumin (Bos taurus) (UniProt P02769)
- Sequence (P02769 whole entry, looked up): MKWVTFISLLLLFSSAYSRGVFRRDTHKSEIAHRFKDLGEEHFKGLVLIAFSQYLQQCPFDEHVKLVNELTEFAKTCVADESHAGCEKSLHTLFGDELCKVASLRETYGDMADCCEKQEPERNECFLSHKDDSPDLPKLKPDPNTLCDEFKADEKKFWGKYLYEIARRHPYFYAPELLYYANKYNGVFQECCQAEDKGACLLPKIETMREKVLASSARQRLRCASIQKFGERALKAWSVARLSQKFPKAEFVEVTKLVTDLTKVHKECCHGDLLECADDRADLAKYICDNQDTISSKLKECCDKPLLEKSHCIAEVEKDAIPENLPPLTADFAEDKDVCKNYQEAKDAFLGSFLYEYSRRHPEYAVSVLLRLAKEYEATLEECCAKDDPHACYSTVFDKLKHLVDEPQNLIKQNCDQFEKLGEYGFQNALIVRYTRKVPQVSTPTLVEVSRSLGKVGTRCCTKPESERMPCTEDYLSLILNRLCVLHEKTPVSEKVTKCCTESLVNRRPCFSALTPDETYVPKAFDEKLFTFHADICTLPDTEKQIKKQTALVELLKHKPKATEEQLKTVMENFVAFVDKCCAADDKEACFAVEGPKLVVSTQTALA
- procedureSummary: bovine serum albumin binders on microarray, profiling panel, artefact control for SMM control protein annotation, biochemical, small-molecule microarray, Alexa647 label, 635/667 nm fluorescence (AID 1118);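 note: score merges 667 nm emission intensity and signal-to-noise per printed compound spot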
- experimentalSetup: BSA-A647 binding, fluorescence 635 nm, higher = more signal
measuredProperty: composite z-score

compound | measuredNumber
O=C1C2C=CC(C(O)c3ccc(Br)cc3)N(Nc3ccccc3F)C2C(=O)N1c1ccccc1 (stereo not given) | 0.826
CN(C)C(=O)[C@@]1(Cc2ccccc2CN=[N+]=[N-])N=C(c2ccc(OCCCO)cc2)O[C@H]1c1ccccc1CN=[N+]=[N-] | 0.936
Cc1ccc(S[C@]2(C(=O)O)CC(=O)N(Cc3ccccc3Cl)[C@@H]2c2ccc(CO)cc2I)cc1 | 0.0877
CC(C)(C)OC(=O)CC[C@@]1(C(=O)NCc2ccccc2)N=C(c2ccc(OCCCO)cc2)O[C@@H]1c1ccccc1N=[N+]=[N-] | 0.952
[N-]=[N+]=NCc1ccccc1[C@H]1OC(c2ccc(OCCCO)cc2)=N[C@@]1(CCS(=O)(=O)c1ccccc1)C(=O)N1CCCCC1 | 1.05
Cc1ccc(S[C@]2(C(=O)NCCCN(C)C)CC(=O)N(C3CCCCC3)[C@@H]2c2ccc(CO)cc2)cc1 | 0.156
O=C1O[C@H](c2ccccc2)[C@H](c2ccccc2)N2[C@H]1[C@@H](C(=O)Nc1nc3ccccc3s1)[C@]1(C(=O)Nc3ccc(C#CCCO)cc31)[C@H]2c1ccc(O)cc1 | 0.497
COc1ccc(NC(=O)O[C@H]2[C@H](OC(=O)Nc3ccccc3)[C@@H](OC(=O)Nc3ccccc3)[C@@H](OC)O[C@@H]2CO)cc1 | 0.137
NC(N)=NCCCn1cc(CNC(=O)[C@@H](N)Cc2ccccc2)nn1 | 0.0958
COC(=O)C1=CC(CCCO)=CC(C2CC2)N(C)C=C1C(=O)OC (stereo not given) | 1.04
COCCOC(=O)N1C(=O)[C@@]2(c3cc(C#CCC(C(=O)OC)C(=O)OC)ccc31)[C@H](C(=O)N1CCc3cc(OC)c(OC)cc3C1)[C@H]1C(=O)O[C@H](c3ccccc3)[C@H](c3ccccc3)N1[C@@H]2c1ccc(OCCO)cc1 | -0.525
C=C(CCCC)/C(=C/C[C@@H](OC(=O)c1ccncc1)c1ccccc1OCCO)c1cnc2ccccc2c1 | 0.459
O=C1C2C=CC(C(O)c3ccc(F)cc3)N(n3cnnc3)C2C(=O)N1Cc1ccccc1 (stereo not given) | -0.224
C[C@@H]1ON(c2ccc(C(=O)OC(C)(C)C)cc2)[C@H](c2ccc(O)cc2)[C@H]1C(=O)N1C(=O)OC[C@H]1Cc1ccccc1 | 0.31
CN(C)CCCNC(=O)[C@@H]1c2ccccc2C(=O)N(Cc2ccccc2Cl)[C@H]1c1ccc(CO)cc1 | 0.301
CN1C(=O)C2C=CC(C(O)c3ccc(F)cc3)N(Nc3ccccc3)C2C1=O (stereo not given) | 0.884
CN(C)C(=O)C1N=C(c2ccc(OCCCO)cc2)N(c2ccccc2)O1 (stereo not given) | 0.0877
COCCCNC(=O)[C@]1(CCS(=O)(=O)c2ccccc2)N=C(c2ccc(OCCCO)cc2)O[C@@H]1c1ccccc1N=[N+]=[N-] | 1.02
COC(=O)Cn1c(C(=O)N(C)C)cc2c1C[C@H]1CN(C(=O)c3ccccc3)[C@@](Cc3ccc(F)cc3)(C(=O)OC)[C@@H]21 | 0.944
C=CC1c2cc(O)c(OC)cc2CCN1Cc1cc2c(cc1Br)OCO2 (stereo not given) | -0.956
CCCCC(O)C1C=CC2C(=O)N(c3ccccc3)C(=O)C2N1Nc1ccc(C(C)C)cc1 (stereo not given) | 0.898
COc1ccc([Si](C)(C)[C@H]2[C@H](CCO)O[C@@]3(C(=O)N(Cc4cccc(N5C(=O)COc6ccccc65)c4)c4ccccc43)[C@@H]2C)cc1 | 0.336
C[C@]1(C(=O)NC2CC2)c2ccccc2C(=O)N(Cc2ccccc2)[C@H]1c1ccc(CO)cc1 | -1.91
CC[C@H]1C2=C3C(CC[C@H]4C(OCc5ccc(F)cc5C(F)(F)F)OC[C@](C)([C@@H]34)N(C(=O)OC(C)(C)C)C2)C(COC)C1COC (stereo not given in full) | 0.515
Cc1ccc(S[C@]2(C(=O)NCC(F)(F)F)CC(=O)N(C3CCCCC3)[C@@H]2c2ccc(CO)cc2I)cc1 | 0.488
CC(C)N1CC=CC23O[C@@H]4C=CCOC(=O)[C@@H]4[C@H]2C(=O)N(CCCO)[C@@H]3C1=O (stereo not given in full) | 1.05
COC(=O)[C@@]1(Cc2ccccc2)[C@H]2c3cc(C(=O)N(C)C)n(Cc4c(CO)[nH]cc(C)c4=O)c3C[C@H]2CN1C(=O)c1ccccc1 | 0.96
[N-]=[N+]=Nc1ccccc1C[C@]1(C(=O)N2CCOCC2)N=C(c2ccc(OCCCO)cc2)O[C@H]1c1ccccc1 | 0.806
COC(=O)C(CC#Cc1ccc2c(c1)[C@]1(C(=O)N2)[C@H](C(=O)N2CCN(c3ncccn3)CC2)[C@H]2C(=O)O[C@H](c3ccccc3)[C@H](c3ccccc3)N2[C@@H]1c1ccc(OCCO)cc1)C(=O)OC | 0.535
CC(C)[Si](C#C[Si](C(C)C)(C(C)C)C(C)C)(O[C@H](C)c1cn([C@H](CO)Cc2ccccc2)nn1)C(C)C | 0.544

---

- procedureSummary: small-molecule microarray binders of probe aCHRDL2, primary screen, biochemical, biotinylated probe, 635/667 nm fluorescence (AID 1100)
- experimentalSetup: higher = more signal
composite z-score listing for selected compounds.

compound | composite z-score
OCCCC1=CC(c2ccc(CN3CCCC3)cc2)N(Cc2sc3ccccc3c2Cl)CC1 (configuration not stated) | 0.504
CCCCN1CC=CC23O[C@@H]4/C=C\CCC(C)OC(=O)C4[C@H]2C(=O)N(C(CO)C(C)C)[C@@H]3C1=O (some centres not stated) | -0.176
Cc1ccc(S[C@]2(C(=O)NCCCN(C)C)CC(=O)N(C3CCCCC3)[C@@H]2c2ccc(CO)cc2)cc1 | 0.893
NCCCCCCNC(=O)[C@@H]1C[C@@H]2C(=O)N[C@@H](CCCCN)C(=O)N2[C@@H]1c1cccc(OCCO)c1 | 1.14
COCCOC(=O)N1C(=O)[C@@]2(c3cc(C#CC4(O)CCCCCC4)ccc31)[C@H](c1ccc(O)cc1)N1[C@H](c3ccccc3)[C@H](c3ccccc3)OC(=O)[C@H]1[C@@H]2C(=O)NC[C@H](O)c1ccccc1 | 0.692
C=C(/C(=C/C[C@H](OC(=O)c1ccncc1)c1ccc(CO)o1)c1cc(C(=O)OC)ccc1OC)C(C)C | -0.0735
O=C1O[C@H](c2ccccc2)[C@H](c2ccccc2)N2[C@H]1[C@@H](C(=O)O)[C@]1(C(=O)Nc3ccc(C#CC4=CCCCC4)cc31)[C@H]2c1ccc(O)cc1 | 0.0645

---

- procedureSummary: E. coli DRC41 culture turbidity changes, primary screen, E. coli filamentation inducer project, strain DRC41, OD650, 48 h (AID 1152);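 note: E. coli MC1000 strain DRC41 lacking acrAB efflux pump and sulA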
- experimentalSetup: E. coli DRC41 (acrAB sulA), higher = more signal, called active from +8 up or from −8 down
Parameter threshold = -0.2. Response is 1 when z-score meets or exceeds it, else -1.

compound | category
CCCCCCCCCCC(O)C1C=CC2C(=O)N(C)C(=O)C2N1NC(=O)OC(C)(C)C (centres undefined) | -1
C=CCN1Cc2ccccc2[C@H]2OC(c3ccc(OCCCO)cc3)=N[C@@]2(CC=C)C1=O | 1
CC1=C([C@H](O)CCc2ccccc2)[C@H](CO)[C@@H]2C(=O)N(C)C(=O)[C@@H]2C1 | 1
COc1ccccc1CN1C(=O)c2ccccc2[C@](Cc2ccccc2I)(C(=O)NCC(F)(F)F)[C@@H]1c1ccc(CO)cc1 | -1
Cc1ccc(S[C@]2(C(=O)O)CC(=O)N(C3Cc4ccccc4C3)[C@@H]2c2ccc(CO)cc2)cc1 | 1
COCCOC(=O)N1C(=O)[C@@]2(c3cc(C#CC4=CCCCC4)ccc31)[C@H](C(N)=O)[C@H]1C(=O)O[C@H](c3ccccc3)[C@H](c3ccccc3)N1[C@@H]2c1ccccc1OCCO | 1
COC(=O)[C@@]1(Cc2ccc(OC)cc2)[C@H]2c3cc(C(=O)N(C)C)n(C[C@H](O)CO)c3C[C@H]2CN1C(=O)c1ccccc1 | -1
Cc1ccc(S[C@]2(C(=O)NCC(F)(F)F)CC(=O)N(Cc3ccccc3C(F)(F)F)[C@@H]2c2ccc(CO)cc2I)cc1 | 1
COCCOC(=O)N1C(=O)[C@@]2(c3cc(C#Cc4ccc(OC)cc4)ccc31)[C@H](c1ccc(O)cc1)N1[C@H](c3ccccc3)[C@H](c3ccccc3)OC(=O)[C@H]1[C@@H]2C(=O)N1CCCCCCC1 | -1
C=CC[C@@]1(C(=O)N2CCOCC2)N=C(c2ccc(OCCCO)cc2)O[C@@H]1c1ccccc1CN=[N+]=[N-] | 1
O=C1O[C@H](c2ccccc2)[C@H](c2ccccc2)N2[C@H]1[C@@H](C(=O)Nc1nc3ccccc3s1)[C@]1(C(=O)Nc3ccccc31)[C@H]2c1ccc(OCCO)cc1 | -1
C=CCC(OC(C)=O)[C@@H]1[C@@H](N(Cc2ccc(-c3cccc(C(F)(F)F)c3)o2)C(=O)c2ccc(-c3ccccc3)cc2)c2cc(OCCCO)ccc2N1C(=O)c1ccc2ccccc2n1 (some centres undefined) | -1
CC(C)(C)N1CC=CC23O[C@@H]4C=CCCOC(=O)C4[C@H]2C(=O)N(CCO)[C@@H]3C1=O (some centres undefined) | 1

Measured values drawn from PubChem BioAssay for this set.
